- System: SF-268 CNS
- Experiment summary: NCI-60 one-dose screen, 48 h
- Setup conditions: 10 µM unless noted
Compounds without any hit were thinned out: in the full panel of roughly 83,000, 20% have a hit. Active and inactive are the calls of the source. The calls were made as follows: active = growth percent below 10; inactive = the rest.
Parameter call: string, one of active, inactive

Example entries and their recorded answers appear below.
1. CC(=O)n1cc(C=O)c2ccccc21 ... inactive
2. CC1(C)CC[C@]2(C(N)=O)CC[C@]3(C)C(=CC[C@@H]4[C@@]5(C)C/C(=C/c6cccnc6)C(=O)C(C)(C)[C@@H]5CC[C@]43C)[C@@H]2C1 ... active

Please indicate how the test categorized O=C(CCN1CCCCC1)c1ccc2ccccc2c1 .
inactive

What was the test verdict on Clc1ccc2nc(-c3ccc(-c4ccc(/C=N/NC5=NCCN5)cc4)s3)cn2c1 ?
inactive

Each molecule tested received a call. Report the one for O=C(N=c1n(-c2ccccc2)nc2n1CCN2C1=NCCN1C(=O)c1ccc(Cl)cc1)c1ccc(Cl)cc1 .
inactive

# fetch the recorded call for CCN(CC)c1ccc2cc(C(Nc3ccc(Cl)cc3)c3nnnn3C(C)(C)C)c(=O)oc2c1 (centres undefined) here
inactive

Would you mind telling me which call this test gave O=c1c2c3c(sc2n2cnnc2n1Cc1ccccc1)CCCC3 ?
inactive

Fill in: this test's call for C=C(C)[C@@H]1CC[C@]2(C(=O)NCCNCCNCCN)CC[C@]3(C)[C@H](CC[C@@H]4[C@@]5(C)CC[C@H](O)C(C)(C)[C@@H]5CC[C@]43C)[C@@H]12 is ___
active

Fill in: this test's call for O=C(Nc1cccc(F)c1)c1cc(=O)[nH]c2cc(Br)ccc12 is ___
inactive

Given CCN(CC)c1ccc2cc(C(Nc3ccc(Br)c(C(F)(F)F)c3)c3nnnn3C(C)(C)C)c(=O)oc2c1 (centres undefined) , state the outcome it received in this test.
inactive

How was N#C/C(C(=O)c1ccccc1)=C1/C(=O)Nc2ccccc21 classified in this test?
inactive

What classification did O=C(N[C@@H]1CCCc2ccccc21)[C@H](CCC(=O)N1CCN(C2CCCCC2)CC1)N1C(=O)[C@@H](N2C(=O)OC[C@@H]2c2ccccc2)[C@H]1/C=C/c1ccccc1 end up with in this test?
inactive

Record lookup: outcome of this test for CCOc1ccc(/C=C(\C#N)c2cc3ccccc3[nH]2)cc1 ?
inactive

// param item: CC(C)(C)c1cc(C(=O)Nc2ccc(C(=O)NCCN)cc2)cc(C(C)(C)C)c1 ; yields the recorded call
inactive

I would be grateful if you could indicate the recorded call for O=C1CN(Cc2ccc(C(=O)NO)cc2)C(=O)[C@@H](Cc2ccccc2)N1 .
inactive

Test call, this molecule: Cc1ccc(-n2nc3n(/c2=N\C(=O)NS(=O)(=O)c2ccc(C)cc2)CCN3C2=NCCN2)cc1
inactive

Please indicate how the test categorized Cn1cc(-c2noc(C(=O)c3cn(C)c4ncc(Br)cc34)n2)c2ccccc21 .
inactive

Outcome? CCOc1ccc2sc(NS(=O)(=O)c3ccc(N)cc3)nc2c1
inactive

I'd appreciate the recorded outcome for CCN(CC)c1cc(N)c(Cc2c(N)cc(N(CC)CC)cc2Cl)c(Cl)c1 from this test.
inactive

# credit: PubChem BioAssay (NCI)
